Target: T1, biotinylated human Ang2 protein (human, UniProt O15123 19-496, limits assumed, biotinylated (sites not given))
T1 construct: also called hAng2
T1 sequence (looked up): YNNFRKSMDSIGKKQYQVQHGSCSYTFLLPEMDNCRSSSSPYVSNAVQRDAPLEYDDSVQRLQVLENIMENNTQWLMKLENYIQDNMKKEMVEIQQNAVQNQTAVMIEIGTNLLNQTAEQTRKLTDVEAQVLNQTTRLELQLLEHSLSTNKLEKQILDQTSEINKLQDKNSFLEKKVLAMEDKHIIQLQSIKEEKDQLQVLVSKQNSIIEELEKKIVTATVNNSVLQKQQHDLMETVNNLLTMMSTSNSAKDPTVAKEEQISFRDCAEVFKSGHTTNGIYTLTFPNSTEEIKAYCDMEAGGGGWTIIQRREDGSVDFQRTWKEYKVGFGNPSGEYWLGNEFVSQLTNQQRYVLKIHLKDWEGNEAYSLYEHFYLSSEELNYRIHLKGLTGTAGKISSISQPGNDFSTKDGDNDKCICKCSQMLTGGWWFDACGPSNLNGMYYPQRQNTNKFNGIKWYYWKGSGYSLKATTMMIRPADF
Test: competition ELISA: antibody preincubated with biotinylated hAng2, binding to coated human Tie2-Fc
Reported metric: IC50 (nM)
Please reply with the bare figure in nM and do not write the unit itself.

Which measured IC50 value corresponds to No. 46 anti-Ang2 antibody (IgG) (antibody, V domains shown, IgG form: VH cloned into Invivogen pfusess-hchg1, VL into Invivogen pfuse2ss-hclk; also called 3C6) VH: QVQLVESGGGLVQPGRSLRLSCAASGFTFDDCAMHWVRQAPGKGLEWVSGISGNSKNVAYADSVKGRFSISRDDAKNSLYLQMNSLRAEDTAVYYCARDPAYSQFDYWGQGTLITVSS VL: QSALTQPPSLSATPGQRVTISCSGSSSNVGGYPVNWYQQVPGAAPKLLMYTDYKRPSGVPDRFFGSKSGTSASLAISGLQSEDEADYYCATWDDNLNGYVFGTGTKVTVLG ?
0.337
